Here the recorded melting point is given for each entry.

Example results:
| chemical smiles | melting point |
| --- | --- |
| Cc1c(Cl)cccc1S(=O)(=O)Nc1ccc2c(c1)nc(C)n2CCO | 245 to 247 °C |
| Cc1c(Cl)cccc1S(=O)(=O)Nc1ccc2c(c1)nc(C)n2-c1ccccc1 | 254 to 256 °C |
| Cc1c(Cl)cccc1S(=O)(=O)Nc1ccc2nc(C)n(C)c2c1 | 265 to 266 °C |

Input: Need melting point, item "Cc1c(Cl)cccc1S(=O)(=O)Nc1ccc2nc(C)n(CCO)c2c1"
Output: 213 to 214.5 °C

###

Here the recorded inhibition at 10 µM is given for each entry.
# assay target: 11 β-HSD type 1 (Rattus norvegicus, UniProt P16232)
# Construct: Both the kidneys and livers were homogenised on ice in PBS-sucrose buffer; tissue Harlan Olac (rats); host or cells: Wistar rat liver homogenate supernatant
# Sequence (P16232 whole entry): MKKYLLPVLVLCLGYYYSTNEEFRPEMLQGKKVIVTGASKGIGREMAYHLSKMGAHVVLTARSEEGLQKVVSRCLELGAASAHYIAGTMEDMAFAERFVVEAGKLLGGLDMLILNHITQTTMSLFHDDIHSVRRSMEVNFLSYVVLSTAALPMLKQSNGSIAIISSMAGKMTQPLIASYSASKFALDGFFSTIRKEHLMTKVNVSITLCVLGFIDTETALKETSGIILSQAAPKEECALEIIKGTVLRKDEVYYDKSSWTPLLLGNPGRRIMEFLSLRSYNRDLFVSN
# method notes: 11 β-HSD type 1 inhibition, rat liver homogenate, conversion E to F (radiometric TLC)
# Format: biochemical
# stated conditions: read-out: % inhibition of 11β HSD1 @ 10 μM, 10 μM, typical sd ± 5%, means n=2
Write the answer as a number in %, unit excluded.

Example results:
| chemical smiles | inhibition at 10 µM / % |
| --- | --- |
| CCN(c1ccc2sc(C)nc2c1)S(=O)(=O)c1cccc(Cl)c1C | 39 |
| Cc1nc2cc(N(S(=O)(=O)c3ccccc3C#N)S(=O)(=O)c3ccccc3C#N)ccc2s1 | 45 |
| Cc1nc2cc(NS(=O)(=O)c3cc(Cl)ccc3Cl)ccc2s1 | 75 |

Input: Need inhibition at 10 µM, item "COc1cc(C)ccc1S(=O)(=O)Nc1ccc2sc(C)nc2c1"
Output: 48

Input: Need inhibition at 10 µM, item "Cc1nc2cc(NS(=O)(=O)c3ccc(Oc4ccccc4)cc3)ccc2s1"
Output: 48

###

# assay target: 11 β-HSD type 1 (Rattus norvegicus, UniProt P16232)
# Construct: Both the kidneys and livers were homogenised on ice in PBS-sucrose buffer; tissue Harlan Olac (rats); host or cells: Wistar rat liver homogenate supernatant
# method notes: 11 β-HSD type 1 inhibition, rat liver homogenate, conversion E to F (radiometric TLC)
# Assay type: biochemical
# stated conditions: read-out: % inhibition of 11β HSD1 @ 10 μM, 10 μM, typical sd ± 5%, means n=2
assay endpoint: inhibition at 10 µM (%)
Write the answer as a number in %, unit excluded.

Example results:
| compound | assay endpoint | measured number |
| --- | --- | --- |
| Cc1nc2cc(N(C)S(=O)(=O)c3cccc(Cl)c3C)ccc2s1 [compound 469] | inhibition at 10 µM | 63 |
| CCCc1ccc(S(=O)(=O)Nc2ccc3sc(C)nc3c2)cc1 [compound 421] | inhibition at 10 µM | 60 |
| Cc1nc2cc(NS(=O)(=O)c3c(C)c(C)cc(C)c3C)ccc2s1 [compound 706] | inhibition at 10 µM | 29 |
| Cc1nc2cc(NS(=O)(=O)c3cccc4ccccc34)ccc2s1 [compound 553] | inhibition at 10 µM | 0.7 |
| COc1ccc(S(=O)(=O)Nc2ccc3sc(C)nc3c2)cc1OC [compound 707] | inhibition at 10 µM | 21 |

Input: Need inhibition at 10 µM, item Cc1nc2cc(NS(=O)(=O)c3cccc4c(N(C)C)cccc34)ccc2s1 [compound 554]
Output: 69

Input: Need inhibition at 10 µM, item Cc1nc2cc(NS(=O)(=O)c3ccc(C(C)C)cc3)ccc2s1 [compound 704]
Output: 38

Input: Need inhibition at 10 µM, item COc1ccc(Cl)cc1S(=O)(=O)Nc1ccc2sc(C)nc2c1 [compound 582]
Output: 40

Input: Need inhibition at 10 µM, item Cc1nc2cc(NS(=O)(=O)c3c(F)c(F)c(F)c(F)c3F)ccc2s1 [compound 712]
Output: 24

Input: Need inhibition at 10 µM, item Cc1nc2cc(NS(=O)(=O)c3ccc(Br)cc3)ccc2s1 [compound 519]
Output: 48

Input: Need inhibition at 10 µM, item COCCSc1nc2ccc(NS(=O)(=O)c3cccc(Cl)c3C)cc2s1 [compound 754]
Output: 20

Input: Need inhibition at 10 µM, item CCN(CC)C(=O)CSc1nc2ccc(NS(=O)(=O)c3cccc(Cl)c3C)cc2s1 [compound 755]
Output: 21

Input: Need inhibition at 10 µM, item Cc1nc2cc(NS(=O)(=O)c3c(Cl)cc(Cl)cc3Cl)ccc2s1 [compound 522]
Output: 37

Input: Need inhibition at 10 µM, item CCOC(=O)CSc1nc2ccc(NS(=O)(=O)c3cccc(Cl)c3C)cc2s1 [compound 752]
Output: 5

Input: Need inhibition at 10 µM, item Cc1nc2cc(NS(=O)(=O)c3ccc(Br)cc3C)ccc2s1 [compound 523]
Output: 21

Input: Need inhibition at 10 µM, item COc1c(C)c(C)c(S(=O)(=O)Nc2ccc3sc(C)nc3c2)c(C)c1C [compound 708]
Output: 39

Input: Need inhibition at 10 µM, item Cc1nc2cc(NS(=O)(=O)c3ccc(-c4ccccc4)cc3)ccc2s1 [compound 521]
Output: 0.5

Input: Need inhibition at 10 µM, item CCSc1nc2ccc(NS(=O)(=O)c3cccc(Cl)c3C)cc2s1 [compound 751]
Output: 10

Input: Need inhibition at 10 µM, item CC(=O)c1ccccc1S(=O)(=O)N(c1ccc2sc(C)nc2c1)S(=O)(=O)c1ccccc1C(C)=O [compound 730]
Output: 32

Input: Need inhibition at 10 µM, item Cc1nc2cc(NS(=O)(=O)c3cccc4cccnc34)ccc2s1 [compound 552]
Output: 18

Input: Need inhibition at 10 µM, item Cc1c(Cl)cccc1S(=O)(=O)Nc1ccc2ncsc2c1 [compound 750]
Output: 4

Input: Need inhibition at 10 µM, item Cc1nc2cc(NS(=O)(=O)c3c(C)cccc3Cl)ccc2s1 [compound 425]
Output: 40

Input: Need inhibition at 10 µM, item Cc1nc2cc(NS(=O)(=O)c3ccccc3C#N)ccc2s1 [compound 583]
Output: 29

This collection of values is drawn from patent US7786152B2.
